assay: Protein binding, minipig plasma (fraction unbound); type: in vitro ADME; conditions: plasma (Transil beads); minipig plasma; read-out: plasma fu (fraction unbound)
recorded_metric: fraction unbound

- O=C(O)c1ccc(CCN(CCc2ccccc2OCc2ccc(-c3ccc(C(F)(F)F)cc3)cc2Cl)[C@H]2CCCc3nc(C(=O)O)ccc32)cc1: 0.00348

====

assay: Protein binding via Transil assay, dog plasma; type: in vitro ADME; conditions: Dog Beagle plasma, Transil assay
Examples of molecules with documented fraction unbound follow.
recorded_metric: fraction unbound

* O=C(O)CCCCN(CCc1ccccc1OCc1ccc(CCc2ccccc2)cc1)Cc1ccc(C(=O)O)cc1 | 0.0112
* O=C(O)c1ccc(CCN(CCc2ccccc2OCc2ccc(-c3ccc(C(F)(F)F)cc3)cc2Cl)[C@H]2CCCc3nc(C(=O)O)ccc32)cc1 | 0.00108

====

test: Caco-2 permeability test (C-5.1); format: in vitro ADME, human; conditions: human, Caco-2; 2 μM, 2 h at 37° C.
recorded_metric: Papp at 2 h, 2 μM (×10⁻⁶ cm/s)

• O=C(O)c1ccc(CCN(CCc2ccccc2OCc2ccc(-c3ccc(C(F)(F)F)cc3)cc2Cl)[C@H]2CCCc3nc(C(=O)O)ccc32)cc1 [comparative example 11] = 1.51

====

test: Phase I single dose inhaled, inhaled + charcoal block, oral and intravenous: pharmacokinetics and lung deposition (C-4.3); type: in vivo, human; settings: male, human, plasma, iv, 100 μg, intravenous, 100 μg infusion over 2 h; read-out: elimination half-life (converted)
recorded_metric: half-life (min)

* O=C(O)c1ccc(CCN(CCc2ccccc2OCc2ccc(-c3ccc(C(F)(F)F)cc3)cc2Cl)[C@H]2CCCc3nc(C(=O)O)ccc32)cc1 | 15.6

====

Assay: Phase I single dose inhaled, inhaled + charcoal block, oral and intravenous: pharmacokinetics and lung deposition (C-4.3)
Type: in vivo, human
Details: male, human, plasma, inhaled or intranasal, 1000 μg, dry powder inhaled without charcoal; read-out: absolute bioavailability
Protocol: Healthy white male subjects, aged 18 to 45 years with a body mass index (BMI) above/equal 18.5 and below/equal 29.9 kg/m^2 were treated in a clinical phase I study with a single inhaled dose of 1000 μg (nominal dose), a single inhaled dose of 1000 μg (nominal dose)+charcoal block, a single oral dose of 1000 μg and a single infusion over 2 h of 100 μg of example 4. […] The emitted dose can be calculated/determined as followed: nominal dose−(remains in the capsule+remains in the device). […]
recorded_metric: bioavailability (%)

• O=C(O)c1ccc(CCN(CCc2ccccc2OCc2ccc(-c3ccc(C(F)(F)F)cc3)cc2Cl)[C@H]2CCCc3nc(C(=O)O)ccc32)cc1 = 18.8

====

Assay: Phase I single dose inhaled, inhaled + charcoal block, oral and intravenous: pharmacokinetics and lung deposition (C-4.3)
Type: in vivo, human
Details: male, human, plasma, inhaled or intranasal, 1000 ug, inhaled 1000 μg without charcoal; read-out: elimination half-life (converted)
Experimental: Healthy white male subjects, aged 18 to 45 years with a body mass index (BMI) above/equal 18.5 and below/equal 29.9 kg/m^2 were treated in a clinical phase I study with a single inhaled dose of 1000 μg (nominal dose), a single inhaled dose of 1000 μg (nominal dose)+charcoal block, a single oral dose of 1000 μg and a single infusion over 2 h of 100 μg of example 4. […] The emitted dose can be calculated/determined as followed: nominal dose−(remains in the capsule+remains in the device). […]
recorded_metric: half-life (h)

- O=C(O)c1ccc(CCN(CCc2ccccc2OCc2ccc(-c3ccc(C(F)(F)F)cc3)cc2Cl)[C@H]2CCCc3nc(C(=O)O)ccc32)cc1 [example 4]: 15.1

====

Assay: Phase I single dose inhaled, inhaled + charcoal block, oral and intravenous: pharmacokinetics and lung deposition (C-4.3)
Type: in vivo, human
Conditions: male, human, plasma, inhaled or intranasal, 1000 μg, dry powder inhaled with charcoal (lung dose); read-out: absolute bioavailability
Protocol: Healthy white male subjects, aged 18 to 45 years with a body mass index (BMI) above/equal 18.5 and below/equal 29.9 kg/m^2 were treated in a clinical phase I study with a single inhaled dose of 1000 μg (nominal dose), a single inhaled dose of 1000 μg (nominal dose)+charcoal block, a single oral dose of 1000 μg and a single infusion over 2 h of 100 μg of example 4. […] The emitted dose can be calculated/determined as followed: nominal dose−(remains in the capsule+remains in the device). […]
recorded_metric: bioavailability

* O=C(O)c1ccc(CCN(CCc2ccccc2OCc2ccc(-c3ccc(C(F)(F)F)cc3)cc2Cl)[C@H]2CCCc3nc(C(=O)O)ccc32)cc1 [example 4] | 16.3%

====

assay: Protein binding, minipig plasma (fraction unbound); type: in vitro ADME; settings: Minipig (female) plasma; read-out: Fraction unbound
recorded_metric: fraction unbound

* O=C(O)c1ccc(CCN(CCc2ccccc2OCc2ccc(-c3ccc(C(F)(F)F)cc3)cc2Cl)[C@H]2CCCc3nc(C(=O)O)ccc32)cc1 | 0.00348

====

test: Phase I single dose inhaled, inhaled + charcoal block, oral and intravenous: pharmacokinetics and lung deposition (C-4.3); assay type: in vivo, human; details: male, human, plasma, inhaled or intranasal, 1000 ug; read-out: relative bioavailability, inhaled with charcoal block to inhaled without
recorded_metric: bioavailability (%)

• O=C(O)c1ccc(CCN(CCc2ccccc2OCc2ccc(-c3ccc(C(F)(F)F)cc3)cc2Cl)[C@H]2CCCc3nc(C(=O)O)ccc32)cc1 [example 4] = 86.9

====

Assay: Protein binding via Transil assay, rat plasma
Assay type: in vitro ADME
Conditions: Rat Wistar plasma, Transil assay
Description: The distribution of a test substance between Transil® (phosphatidylcholine lipid bilayers immobilized on silica beads) and plasma is a characteristic feature of any pharmaceutical compound and is dependent on its extent of binding to plasma proteins. By comparing the distribution between Transil® and buffer with the distribution between Transil® and plasma of any species of interest, the unbound fraction in the plasma of the respective animal species can be calculated in vitro. […]
recorded_metric: fraction unbound

- O=C(O)CCCCN(CCc1ccccc1OCc1ccc(CCc2ccccc2)cc1)Cc1ccc(C(=O)O)cc1: 0.00351
- O=C(O)c1ccc(CCN(CCc2ccccc2OCc2ccc(-c3ccc(C(F)(F)F)cc3)cc2Cl)[C@H]2CCCc3nc(C(=O)O)ccc32)cc1: 0.00224

====

test: Protein binding via Transil assay, plasma of all species investigated (C-5.2); assay type: in vitro ADME; settings: Wistar (rat), Beagle (dog), plasma (Transil beads), read-out: free fractions
Examples of molecules with documented fraction unbound follow.
recorded_metric: fraction unbound

- O=C(O)CCCCN(CCc1ccccc1OCc1ccc(CCc2ccccc2)cc1)Cc1ccc(C(=O)O)cc1 [comparative example 1]: < 0.01
- O=C(O)c1ccc(CCN(CCc2ccccc2OCc2ccc(-c3ccc(C(F)(F)F)cc3)cc2Cl)[C@H]2CCCc3nc(C(=O)O)ccc32)cc1 [comparative example 11]: < 0.01

====

test: Phase I single dose inhaled, inhaled + charcoal block, oral and intravenous: pharmacokinetics and lung deposition (C-4.3); type: in vivo, human; details: male, human, plasma, po, 1000 ug, oral, 1000 μg solution; read-out: elimination half-life (converted)
recorded_metric: half-life (min)

* O=C(O)c1ccc(CCN(CCc2ccccc2OCc2ccc(-c3ccc(C(F)(F)F)cc3)cc2Cl)[C@H]2CCCc3nc(C(=O)O)ccc32)cc1 | 266

====

assay: Protein binding via Transil assay, monkey plasma; assay type: in vitro ADME; settings: Monkey Cynomolgus plasma
recorded_metric: fraction unbound

- O=C(O)CCCCN(CCc1ccccc1OCc1ccc(CCc2ccccc2)cc1)Cc1ccc(C(=O)O)cc1: 0.000799
- O=C(O)c1ccc(CCN(CCc2ccccc2OCc2ccc(-c3ccc(C(F)(F)F)cc3)cc2Cl)[C@H]2CCCc3nc(C(=O)O)ccc32)cc1: 0.000485

====

assay: Particle size distribution by laser diffraction with dry dispersion; type: physicochemical; conditions: after micronization, dry measurement (3 or 4 bar)
recorded_metric: PSD X50

• O.O=C(O)c1ccc(CCN(CCc2ccccc2OCc2ccc(-c3ccc(C(F)(F)F)cc3)cc2Cl)[C@H]2CCCc3nc(C(=O)O)ccc32)cc1 [8g] = X50: 1.8 μm,
• O.O=C(O)c1ccc(CCN(CCc2ccccc2OCc2ccc(-c3ccc(C(F)(F)F)cc3)cc2Cl)[C@H]2CCCc3nc(C(=O)O)ccc32)cc1 [8c] = X50: 1.8 μm,

====

experiment: Protein binding via ultrafiltration assay (comparative example 2); format: in vitro ADME; details: Dog Beagle plasma
recorded_metric: fraction unbound

* COC(=O)N(C)c1c(N)nc(-c2nn(Cc3ccccc3F)c3ncccc23)nc1N [comparative example 2, reference compound] | 0.171
